# System: CYP3A (hepatic)
# test_protocol: Example 3: IV midazolam probe for CYP3A activity at a range of RTV doses
# measurement_parameters: human, plasma, iv, probe midazolam, Half-life (mean), MDZ 1 mg IV, +200 mg RTV
measured_attribute: half-life (h)
Give just the number in h; leave the unit off.

Ask | Can you look up the measured half-life of Cc1ncc2n1-c1ccc(Cl)cc1C(c1ccccc1F)=NC2 for me?
Reply | 15.2

---

# test_protocol: Example 7: food effect on pharmacokinetics of Compound 1 in healthy Japanese males
# Assay type: in vivo
# measurement_parameters: male, human, plasma, po, 400 mg, Fed, single oral dose 400 mg; Mean ± SD (n = 6); read-out: t1/2 λz (converted)
measured_attribute: half-life (h)
Give just the number in h; leave the unit off.

Ask | Can you look up the measured half-life of COc1cc2c(cc1Cc1cccc(Cl)c1F)c(=O)c(C(=O)O)cn2[C@H](CO)C(C)C for me?
Reply | 3.2
